Attribute: TGI
Tested on: COLO 205 colon
EXPERIMENTAL_DETAILS: NCI tumour cell line growth inhibition, 48 h

COc1ccc2c(c1)C(O)(C(F)(F)F)c1cc(C(=O)C(F)(F)F)c3ccccc3c1N2 (configuration not stated) | 19.5 µM
COc1ccc(/C(=N/O)c2ccccc2-c2nc3ccccc3c(=O)n2-c2ccc(S(=O)(=O)Nc3ncccn3)cc2)cc1C | > 31.6 µM
O=C(CN1CCCCC1)CC(O)(C(F)(F)F)C(F)(F)F | > 100 µM

Task: Quick one: TGI for CCN(CC)CCOC(NC(C)=O)(c1ccccc1)c1ccccc1 ?
Output: > 100 µM

Task: Value lookup for TGI; key = CC1(C)O[C@@H]2COC(=O)[C@@H]2O1
Output: > 100 µM

Task: Using the record for O=C1c2ccccc2CN1c1ccc(O)cc1 , report its TGI.
Output: > 100 µM

Task: Using the record for CC(C)(C)OC(=O)C#CC[C@H]1CCCC1/C=C/C(O)=C1/C(=O)NC(CCCNC(=O)OC(C)(C)C)C1=O (some centres not stated) , report its TGI.
Output: 33.6 µM

Task: Consider the molecule shown here: C=C(C)CCC(=O)[C@](C)(O)[C@H]1[C@H](O)C[C@@]2(C)[C@@H]3CCc4c(cc(OC5OC(CO)C(O)C(O)C5O)c(O)c4C)C3(C)C(=O)C[C@]12C (some centres not stated) What is its recorded TGI?
Output: > 100 µM

Task: Give the measured TGI of COc1cccc(-c2cc(=O)c3c(C)cc(C)nc3[nH]2)c1 .
Output: 0.637 µM

Task: What value of TGI has been reported for the following molecule? CCC[C@H]1C(=O)N=C(N)N1C(=O)OCc1ccccc1
Output: > 100 µM

Task: Which measured TGI value corresponds to COc1cc(/C=C/C(=O)O)ccc1C(=O)O/C=C/c1ccccc1 ?
Output: > 100 µM

====

Tested on: A549 NSCLC
EXPERIMENTAL_DETAILS: NCI tumour cell line growth inhibition, 48 h
Examples of compounds with documented GI50 follow.

// below: answered compounds
C[C@H](Nc1ncnc2nc[nH]c12)c1cc2cccc(Cl)c2c(=O)n1-c1ccccc1 | 24200 nM
CCCC[C@H](NC(=O)[C@H]1CCCN1C)C(=O)N(C)[C@H](C[C@@H](OC(C)=O)c1nc(C(=O)N[C@@H](Cc2ccccc2)C[C@H](C)C(=O)OCC)cs1)C(C)C | 50.1 nM
COc1ccc2nc3cc([N+](=O)[O-])ccc3c(NCCCCCN(C)C)c2c1 | 250 nM

Moving on to another compound below.
Task: Entry under review: Cc1sc(C(=O)Nc2cc(C(=O)NCCCN(C)C)n(C)c2)cc1NC(=O)CCCN1C(=O)c2cccc3cccc(c23)C1=O . Reported GI50?
Output: > 100000 nM

====

Each entry below lists one item and its recorded TGI value.
Test system: SK-MEL-2 melanoma
EXPERIMENTAL_DETAILS: NCI tumour cell line growth inhibition, 48 h

Task: Would you mind telling me what TGI value was observed for COc1cc2c(cc1OCCCCOc1cc(-c3ccc(F)cc3)nc(C)n1)N=C[C@@H]1CCCN1C2=O ?
Output: 2.31 µM

Task: For Cc1cc(-c2nc3c(O)cccc3s2)ccc1N , what is its reported TGI?
Output: 52.9 µM

Task: Form field: reported TGI of CCCC[C@H](NC(=O)[C@H]1CCCN1C)C(=O)N(C)[C@H](C[C@@H](OC(C)=O)c1nc(C(=O)N[C@@H](Cc2ccccc2)C[C@H](C)C(=O)OCC)cs1)C(C)C
Output: 8.71 µM

Task: Query (molecule): O=CNc1c(Cl)cc2c(c1Cl)Cc1cc([N+](=O)[O-])ccc1-2 ; field requested: TGI
Output: > 86.6 µM

Task: Need TGI of CC(C)C(=O)Nc1nc2nc[nH]c2c(=O)[nH]1 , thanks.
Output: > 100 µM

Task: Please look up its TGI: CN(CCCN)CCCNc1nc2ccccc2c2[nH]c3ccccc3c12
Output: 0.835 µM
